Values from paper PMC7168933

Please go through the items and note down their melting point.

For the compound shown here, C/C(=C\C12c3ccccc3C(Cl)(c3ccccc31)C1C(=O)OC(=O)C12)[N+](=O)[O-] (stereo not shown) [Compound 13e] , give the reported melting point.
270 to 272 °C

# iterate: C/C(=C\C12c3ccccc3C(c3ccccc31)C1C(=O)N(Cc3ccccc3)C(=O)C12)[N+](=O)[O-] (stereo not shown) [Compound 17j]
232 to 236 °C

Entry COc1cc(OC)cc(N2C(=O)C3C4c5ccccc5C(/C=C/[N+](=O)[O-])(c5ccccc54)C3C2=O)c1 (stereo not shown) [Compound 16j] please
268 to 271 °C

Entry O=C1C2C3c4ccccc4C(/C=N/O)(c4ccccc43)C2C(=O)N1c1ccccc1 (stereo not shown) [Compound 23k] please
238 to 242 °C

----------
Field: viability at 10 µM. Provide a value for each of the molecules that follow.
- Test system: MUTU-1 Burkitt lymphoma cell line (EBV+)
- assay comment: cells
- condition details: Mutu-1, 24 h, read-out: MUTU-1 Cell Viability % 10 μM, 10 μM, 24 h
# value in %; strip the unit string

Name the reported viability at 10 µM value associated with the molecule COc1cc(OC)cc(N2C(=O)C3C4c5ccccc5C(/C=C/[N+](=O)[O-])(c5ccccc54)C3C2=O)c1 (stereo not shown) [Compound 16j]
5.4

Note, next up: C/C(=C\C12c3ccccc3C(Cl)(c3ccccc31)C1C(=O)NC(=O)C12)[N+](=O)[O-] (stereo not shown) [Compound 13k]
51.6

Input Nc1ccc(N2C(=O)C3C4c5ccccc5C(/C=C/[N+](=O)[O-])(c5ccccc54)C3C2=O)cc1 (stereo not shown) [Compound 16n]
3.7

# repeat for O=C1NC(=O)C2C1C1c3ccccc3C2(/C=N/O)c2ccccc21 (stereo not shown) [Compound 23j]
87.6

// next record C/C(=C\C12c3ccccc3C(c3ccccc31)C1C(=O)N(c3ccc(Cl)cc3)C(=O)C12)[N+](=O)[O-] (stereo not shown) [Compound 17c]
77.6

Now the molecule O=C1C2C3c4ccccc4C(/C=C/[N+](=O)[O-])(c4ccccc43)C2C(=O)N1c1cccc(Cl)c1 (stereo not shown) [Compound 16k]
0.84

Next entry: O=C1OC(=O)C2C1C1c3ccccc3C2(/C=C/[N+](=O)[O-])c2ccccc21 (stereo not shown) [Compound 13a]
12.5

// query: CC/C(=C\C12c3ccccc3C(Cl)(c3ccccc31)C1C(=O)N(c3ccccc3)C(=O)C12)[N+](=O)[O-] (stereo not shown) [Compound 17h]
96.3

CCOC(=O)C1C2c3ccccc3C(/C=C/[N+](=O)[O-])(c3ccccc32)C1C(=O)OCC (stereo not shown) [Compound 19f] , same question.
13.8

What do we get for CC/C(=C\C12c3ccccc3C(c3ccccc31)C1C(=O)N(c3ccccc3)C(=O)C12)[N+](=O)[O-] (stereo not shown) [Compound 17b] ?
83.4

Field entry: CC(=O)OC1(C#N)CC2c3ccccc3C1(/C=C/[N+](=O)[O-])c1ccccc12 (stereo not shown) [Compound 19d]
0.69

# repeat for CC/C(=C\C12c3ccccc3C(Cl)(c3ccccc31)C1C(=O)OC(=O)C12)[N+](=O)[O-] (stereo not shown) [Compound 13f]
91.6

Consider next the molecule O=C1C2C3c4ccccc4C(C(=O)O)(c4ccccc43)C2C(=O)N1c1ccccc1 (stereo not shown) [Compound 21i] in the same way.
92.5

Another molecule: O=C1NC(=O)C2C1C1c3ccccc3C2(C(=O)O)c2ccccc21 (stereo not shown) [Compound 21h]
92

Another molecule to look at: O=C1C2C(C(=O)N1c1ccccc1)C1(/C=C/[N+](=O)[O-])c3ccccc3C2(Cl)c2ccccc21 (stereo not shown) [Compound 16d]
0.41

Check O=C1NC(=O)C2C1C1c3ccccc3C2(/C=C/[N+](=O)[O-])c2ccccc21 (stereo not shown) [Compound 13g] too.
7.2

Next record, please: O=C1OC(=O)C2C1C1c3ccccc3C2(O)c2ccccc21 (stereo not shown) [Compound 21j]
100

Same thing, different molecule: N/N=C/C12c3ccccc3C(c3ccccc31)C1C(=O)NC(=O)C12 (stereo not shown) [Compound 23g]
101

Next up: O=CC12c3ccccc3C(c3ccccc31)C1C(=O)N(c3ccccc3)C(=O)C12 (stereo not shown) [Compound 21f]
77.7

Now give it for O=C1NC(=O)C2C1C1(Cl)c3ccccc3C2(C=C[N+](=O)[O-])c2ccccc21 (stereo not shown) [Compound 13j] too.
0.62

# iterate: O=C1OC(=O)C2C1C1c3ccccc3C2(C(=O)O)c2ccccc21 (stereo not shown) [Compound 21g]
88.8

Please answer likewise for O=c1n(-c2ccccc2)c(=O)n2n1C1c3ccccc3C2(/C=C/[N+](=O)[O-])c2ccccc21
13.2

Now consider O=C1C2C3c4ccccc4C(c4ccccc43)C2C(=O)N1c1ccccc1 (stereo not shown) [Compound 21c] .
91.2

What do you have for N#C/C=C/C12c3ccccc3C(c3ccccc31)C1C(=O)N(c3ccccc3)C(=O)C12 (stereo not shown) [Compound 23c] ?
74.1

// query: O=C1C2C3c4ccccc4C(/C=C/[N+](=O)[O-])(c4ccccc43)C2C(=O)N1c1ccc(F)cc1 (stereo not shown) [Compound 16e]
1.4

Would you mind doing N#CC(C#N)=CC12c3ccccc3C(c3ccccc31)C1C(=O)N(c3ccccc3)C(=O)C12 (stereo not shown) [Compound 23f] as well?
71.8

Query N#CC(C#N)=CC12c3ccccc3C(c3ccccc31)C1C(=O)OC(=O)C12 (stereo not shown) [Compound 23d] next
82.7

Record: CC/C(=C\C12c3ccccc3C(c3ccccc31)C1C(=O)NC(=O)C12)[N+](=O)[O-] (stereo not shown) [Compound 13i]
73

Same question, CC/C(=C\C12c3ccccc3C(c3ccccc31)C1C(=O)N(c3ccc(Cl)cc3)C(=O)C12)[N+](=O)[O-] (stereo not shown) [Compound 17d] this time
99.9

And the next one, COc1cc(N2C(=O)C3C4c5ccccc5C(/C=C/[N+](=O)[O-])(c5ccccc54)C3C2=O)cc(OC)c1OC (stereo not shown) [Compound 16f] ?
1.1

Quick one: C/C(=C\C12c3ccccc3C(c3ccccc31)C1C(=O)N(c3ccccc3)C(=O)C12)[N+](=O)[O-] (stereo not shown) [Compound 17a]
68.6

----------
For each record, write down the corresponding melting point.

Please give the measured melting point for this compound: C/C(=C\C12c3ccccc3C(c3ccccc31)C1C(=O)N(c3ccc(Cl)cc3)C(=O)C12)[N+](=O)[O-] (stereo not drawn) [Compound 17c]
298 to 300 °C

// same read-out, input: C/C(=C\C12c3ccccc3C(Cl)(c3ccccc31)C1C(=O)N(c3ccccc3)C(=O)C12)[N+](=O)[O-] (stereo not drawn) [Compound 17g]
268 to 271 °C

Another compound to look at: N#C/C=C/C12c3ccccc3C(c3ccccc31)C1C(=O)OC(=O)C12 (stereo not drawn) [Compound 23a]
215 to 219 °C

Do the same for O=C(c1ccccc1)c1ccc(N2C(=O)C3C4c5ccccc5C(/C=C/[N+](=O)[O-])(c5ccccc54)C3C2=O)cc1 (stereo not drawn) [Compound 16i] please
232 to 234 °C

Next entry: CC(=O)OC1(C#N)CC2c3ccccc3C1(/C=C/[N+](=O)[O-])c1ccccc12 (stereo not drawn) [Compound 19d]
168 to 170 °C

// next record O=C1C2C3c4ccccc4C(/C=C/[N+](=O)[O-])(c4ccccc43)C2C(=O)N1CCc1ccccc1 (stereo not drawn) [Compound 17n]
152 to 156 °C

Okay, and COC(=O)C1C2c3ccccc3C(/C=C/[N+](=O)[O-])(c3ccccc32)C1C(=O)OC (stereo not drawn) [Compound 19e] ?
141 to 143 °C

Next record, please: N#CC(C#N)=CC12c3ccccc3C(c3ccccc31)C1C(=O)N(c3ccccc3)C(=O)C12 (stereo not drawn) [Compound 23f]
255 to 258 °C

Also CC/C(=C\C12c3ccccc3C(c3ccccc31)C1C(=O)N(Cc3ccccc3)C(=O)C12)[N+](=O)[O-] (stereo not drawn) [Compound 17k] , if possible.
188 to 199 °C

# repeat for O=C1NC(=O)C2C3c4ccccc4C(c4ccccc43)C12 (stereo not drawn) [Compound 21b]
299 to 300 °C

Do the same for CN1C(=O)C2C3c4ccccc4C(/C=C/[N+](=O)[O-])(c4ccccc43)C2C1=O (stereo not drawn) [Compound 13m] please
267 to 268 °C

Check N#CC(C#N)=CC12c3ccccc3C(c3ccccc31)C1C(=O)OC(=O)C12 (stereo not drawn) [Compound 23d] too.
196 to 198 °C

Same again, this time with CC/C(=C\C12c3ccccc3C(c3ccccc31)C1C(=O)N(c3ccccc3)C(=O)C12)[N+](=O)[O-] (stereo not drawn) [Compound 17b]
259 to 263 °C

Quick one: CCC(=CC12c3ccccc3C(c3ccccc31)c1ccccc12)[N+](=O)[O-] [Compound 20c]
210 to 211 °C

C/C(=C\C12c3ccccc3C(Cl)(c3ccccc31)C1C(=O)NC(=O)C12)[N+](=O)[O-] (stereo not drawn) [Compound 13k] ?
295 to 297 °C

Lookup CC/C(=C\C12c3ccccc3C(c3ccccc31)C1C(=O)N(Cc3cc(OC)c(OC)c(OC)c3)C(=O)C12)[N+](=O)[O-] (stereo not drawn) [Compound 17m]
224 to 229 °C

Subsequent entry: O=[N+]([O-])C=CC12c3ccccc3C(Cl)(c3ccccc31)c1ccccc12 [Compound 20d]
259 to 261 °C

Now this one: CC/C(=C\C12c3ccccc3C(Cl)(c3ccccc31)C1C(=O)NC(=O)C12)[N+](=O)[O-] (stereo not drawn) [Compound 13l]
294 to 298 °C
